The measurements presented in this section are drawn from patent US6482921B1.

Tested on: Mycobacterium smegmatis ATCC 19420
Assay remarks: MIC broth microdilution, M. smegmatis ATCC 19420
Cond: 72 hours at 35° C., CAMHB
Entries and their measured MIC Broth microdilution M. smegmatis ATCC19420 follow.
# unit: µg/mL | format: bare number

Worked set:
- Compound: "C[C@@H]([C@H](NC(=O)[C@H](Cc1ccccc1)NC(=O)N[C@@H](Cc1c[nH]c2ccccc12)C(=O)O)C(=O)NC[C@H]1C[C@@H](O)[C@H](n2ccc(=O)[nH]c2=O)O1)N(C)C(=O)CN"
  Tested target: "Mycobacterium smegmatis ATCC 19420"
  Value reported: 4
- Compound: "CC(N)C(=O)N(C)C(C)C(NC(=O)C(Cc1ccc(Cl)cc1)NC(=O)NC(Cc1ccc(O)cc1)C(=O)O)C(=O)NCC1CC(O)C(n2ccc(=O)[nH]c2=O)O1 (centres unmarked)"
  Tested target: "Mycobacterium smegmatis ATCC 19420"
  Value reported: 16
- Compound: "CC(N)C(=O)N(C)C(C)C(NC(=O)C(Cc1ccc(I)cc1)NC(=O)NC(Cc1ccc(O)cc1)C(=O)O)C(=O)NCC1CC(O)C(n2ccc(=O)[nH]c2=O)O1 (centres unmarked)"
  Tested target: "Mycobacterium smegmatis ATCC 19420"
  Value reported: 16
- Compound: "CC(C)CC(N)C(=O)N(C)C(C)C(NC(=O)C(Cc1ccc(F)cc1)NC(=O)NC(Cc1c[nH]c2ccccc12)C(=O)O)C(=O)NCC1CC(O)C(n2ccc(=O)[nH]c2=O)O1 (centres unmarked)"
  Tested target: "Mycobacterium smegmatis ATCC 19420"
  Value reported: 8

Prompt: For the compound CC(N)C(=O)N(C)C(C)C(NC(=O)C(Cc1ccc(F)cc1)NC(=O)NC(Cc1c[nH]c2ccccc12)C(=O)O)C(=O)NCC1CC(O)C(n2ccc(=O)[nH]c2=O)O1 (centres unmarked) , what MIC Broth microdilution M. smegmatis ATCC19420 is on record?
Response: 1

---

MIC (μg/ml) Broth microdilution for assorted compounds
Tested on: Pseudomonas aeruginosa PAM 1135
Assay remarks: MIC broth microdilution, P. aeruginosa PAM 1135 (high level UPA resistance)
Format: cell-based
Cond: P. aeruginosa PAM 1135 UPA1^r

- Compound: "CSCCC(N)C(=O)N(C)C(C)C(NC(=O)C(C)NC(=O)NC(Cc1c[nH]c2ccccc12)C(=O)O)C(=O)NCC1CC(O)C(n2ccc(=O)[nH]c2=O)O1 (stereo not shown)"
  Value reported: ">512 µg/mL"

Prompt: Please look up its MIC (μg/ml) Broth microdilution: C[C@H](N)C(=O)N(C)[C@@H](C)[C@H](NC(=O)[C@H](Cc1ccc2ccccc2c1)NC(=O)N[C@@H](Cc1ccc(O)cc1)C(=O)O)C(=O)NC[C@H]1C[C@@H](O)[C@H](n2ccc(=O)[nH]c2=O)O1
Response: >512 µg/mL

Prompt: Can you look up the measured MIC (μg/ml) Broth microdilution of CN[C@@H](C)[C@H](NC(=O)[C@H](Cc1ccccc1)NC(=O)N[C@@H](Cc1c[nH]c2ccccc12)C(=O)O)C(=O)NC[C@H]1C[C@@H](O)[C@H](n2ccc(=O)[nH]c2=O)O1 for me?
Response: 256 µg/mL

Prompt: // MIC (μg/ml) Broth microdilution lookup, key: CN[C@@H](C)[C@H](NC(=O)[C@H](C)NC(=O)N[C@@H](Cc1c[nH]c2ccccc12)C(=O)O)C(=O)NC[C@H]1C[C@@H](O)[C@H](n2ccc(=O)[nH]c2=O)O1
Response: >512 µg/mL

Prompt: MIC (μg/ml) Broth microdilution for CC(N)C(=O)N(C)C(C)C(NC(=O)C(Cc1ccccc1)NC(=O)NC(Cc1cccs1)C(=O)O)C(=O)NCC1CC(O)C(n2ccc(=O)[nH]c2=O)O1 (stereo not shown) ?
Response: >512 µg/mL

Prompt: Please report the recorded MIC (μg/ml) Broth microdilution for CC(C)CC(N)C(=O)N(C)C(C)C(NC(=O)C(Cc1ccc(F)cc1)NC(=O)NC(Cc1c[nH]c2ccccc12)C(=O)O)C(=O)NCC1CC(O)C(n2ccc(=O)[nH]c2=O)O1 (stereo not shown) .
Response: >512 µg/mL

Prompt: Requested field: MIC (μg/ml) Broth microdilution. Item: CC(C(NC(=O)C(Cc1ccccc1)NC(=O)NC(Cc1c[nH]c2ccccc12)C(=O)O)C(=O)NCC1CC(O)C(n2ccc(=O)[nH]c2=O)O1)N(C)C(=O)CCCCN (stereo not shown)
Response: 256 µg/mL

Prompt: Dear colleague, I am looking for the recorded MIC (μg/ml) Broth microdilution of the following compound: CC(N)C(=O)N(C)C(C)C(NC(=O)C(Cc1ccc([N+](=O)[O-])cc1)NC(=O)NC(Cc1ccc(O)cc1)C(=O)O)C(=O)NCC1CC(O)C(n2ccc(=O)[nH]c2=O)O1 (stereo not shown)
Response: >512 µg/mL

Prompt: What value of measured MIC (μg/ml) Broth microdilution is listed for CC(N)C(=O)N(C)C(C)C(NC(=O)C(Cc1ccc(F)cc1)NC(=O)NC(Cc1c[nH]c2ccccc12)C(=O)O)C(=O)NCC1CC(O)C(n2ccc(=O)[nH]c2=O)O1 (stereo not shown) ?
Response: 256 µg/mL

Prompt: Given CC(C(NC(=O)C(Cc1ccc(F)cc1)NC(=O)NC(Cc1ccc(O)cc1)C(=O)O)C(=O)NCC1CC(O)C(n2ccc(=O)[nH]c2=O)O1)N(C)C(=O)CN (stereo not shown) , state its recorded MIC (μg/ml) Broth microdilution.
Response: >512 µg/mL
